# Test system: BT-549 breast
# Protocol Details: NCI tumour cell line growth inhibition, 48 h
Assay Readout: GI50

Look over these answered cases.
INSERT INTO results (compound, system_tested, assay_readout, result) VALUES
  ('Cn1c(/C=C/[N+](=O)[O-])cc2ccccc21', 'BT-549 breast', 'GI50', '1.88 µM'),
  ('Cn1c(=O)c(Oc2ccc(F)cc2F)cc2cnc(NC3CCS(=O)(=O)CC3)nc21', 'BT-549 breast', 'GI50', '> 25 µM');

Entry O=C1OCC2=C1C(c1ccc(Cl)c(Cl)c1)c1cc3c(cc1N2CCO)CCC3 (configuration not stated) , GI50 reported as 1.35 µM

Field GI50 (entry CN(C)c1ccc(/C=C/C2=[N+](C)c3ccccc3C2(C)C)cc1 ) reads 0.467 µM

# GI50 (compound: COc1cc(-c2cc(-c3cc(OC)c(OC)c(OC)c3)nc3nc(N)[nH]c(=O)c23)ccc1Oc1ccnc2cc(Cl)ccc12 ) is 2.91 µM

====

# Tested on: SNB-75 CNS
# Protocol Details: NCI tumour cell line growth inhibition, 48 h
Assay Readout: TGI

See these solved cases before continuing.
INSERT INTO results (compound, result) VALUES
  ('COc1cc(-c2[o+]c3cc(O)cc(O)c3cc2O)cc(O)c1O', '> 100 µM'),
  ('COc1cc2c(cc1OC)C1Cc3cc(OC)c(OC)cc3C(C2)N1C', '> 100 µM'),
  ('COc1cc(-c2cc(-c3cc(OC)c(OC)c(OC)c3)nc3nc(N)[nH]c(=O)c23)ccc1Oc1ccnc2cc(Cl)ccc12', '> 100 µM'),
  ('O=C1c2cc([N+](=O)[O-])ccc2-c2ccc3c4ccc5c6c(ccc(c7ccc1c2c73)c64)C(=O)c1cc([N+](=O)[O-])ccc1-5', '> 100 µM'),
  ('O=C(Nc1ccccc1)c1cc(S(=O)(=O)Nc2nc3ccccc3o2)c(SCc2ccccc2)cc1Cl', '66.9 µM'),
  ('COC(=O)C1=C(OC(=O)/C=C/c2ccc(Cl)cc2)C(C(=O)OC)[C@@]2(O)[C@@H](C(=O)OC)[C@H](C)C[C@@H]1[C@@H]2C(=O)OC (stereo partly drawn)', '> 100 µM'),
  ('COc1ccccc1NC(=O)c1nc2ccc([N+](=O)[O-])cc2nc1C', '> 100 µM');

Now examine the next entry.
Quick note, TGI for O=C1c2ccccc2-c2c1c1ccccc1c(=O)n2CCCNCCCCNCCCN1C(=O)c2ccccc2C2C(=O)c3ccccc3C21 (stereo not drawn) landed at 1.46 µM

====

Consider the following compounds and their measured TGI readings.
# Tested on: PC-3 prostate
# Protocol Details: NCI tumour cell line growth inhibition, 48 h

INSERT INTO measurements (compound, result) VALUES
  ('CC(=O)OC12c3ccccc3-c3ccccc3C1C1C(=O)OC(=O)C12 (stereo unspecified)', '> 10 µM'),
  ('c1ccc2c(c1)CCc1[nH]c3c(c1-2)-c1ccccc1CC3', '> 100 µM'),
  ('Cn1c(NCC(O)CN2CCCC2)cc(=O)n(C)c1=O (stereo unspecified)', '> 100 µM');

As a next step, examine the compound that follows.
Field TGI (entry O=C1CC(=O)NC(=NNS(=O)(=O)c2ccccc2)N1 ) reads > 100 µM

====

# System: T-47D breast
# Protocol Details: NCI tumour cell line growth inhibition, 48 h
Assay Readout: TGI

INSERT INTO results (molecule_smiles, assay_readout, result) VALUES
  ('NCOC(=O)Cc1ccc(Br)cc1', 'TGI', '> 100 µM'),
  ('Nc1nc2c(ncn2Cc2ccccc2CO)c(=O)[nH]1', 'TGI', '> 100 µM'),
  ('COc1cc2c(cc1Nc1nc(Nc3cccc(F)c3C(N)=O)c3cc[nH]c3n1)N(C(=O)CN1CCN(C(C)C)CC1)CC2', 'TGI', '6.54 µM'),
  ('O=C(NCCNCCCNC(=O)c1cc(-c2ccccc2)nc2ccccc12)c1cccc(OCc2ccccc2)c1OCc1ccccc1', 'TGI', '4.2 µM'),
  ('CCN1Cc2nc3sc(C)c(C)c3c(=O)n2C=C1C', 'TGI', '> 100 µM');

Per the records, this compound ( c1ccc2c(c1)CCc1[nH]c3c(c1-2)-c1ccccc1CC3 ) has TGI equal to > 100 µM

====

# System: HOP-62 NSCLC
# Protocol Details: NCI tumour cell line growth inhibition, 48 h
Assay Readout: TGI (µM)
Give the value in µM but do not write µM after it.

Worked set:
INSERT INTO measurements (molecule_smiles, system_tested, assay_readout, result_number) VALUES
  ('COc1ccc2[nH]c3c(C)c4ccnc(NCCCN(C)CCCNc5ccc6ncn7c8ccccc8c(=O)c5c67)c4c(C)c3c2c1', 'HOP-62 NSCLC', 'TGI', 0.784),
  ('C=CCOC(=O)C1=C(CCC[C@@H](C)O[Si](C)(C)C(C)(C)C)N=C(N)N2[C@H](CCO)CC[C@@H]12', 'HOP-62 NSCLC', 'TGI', 27.4),
  ('Oc1cc2ccccc2c(-c2c(O)c(O)cc3ccccc23)c1O', 'HOP-62 NSCLC', 'TGI', 8.39);

Record summary for Cc1cc(S(=O)(=O)/N=C(/[N-]S(=O)(=O)c2ccc(Cl)cc2)[n+]2ccc(N(C)C)cc2)c(SCC(=O)O)cc1Cl : reported TGI = 46.2

====

# Tested on: SK-MEL-5 melanoma
# Protocol Details: NCI tumour cell line growth inhibition, 48 h
# log10(TGI) listing for each entry below
Base-10 log of TGI, unit µM.

Completed entries (count: 5):
INSERT INTO results (compound, result_number) VALUES
  ('CC(=O)C1=C(C)N(c2ccc(C)cc2)C2(O)C3=C(C(=O)c4ccccc4C3=O)C(O)=CC12Cl (stereo unspecified)', 1.35),
  ('C=C[C@]1(C)CCC2=C(CCC3C2(C)CCC[C@@]3(C)COC(C)=O)C1 (stereo partly specified)', 1.49),
  ('COc1cc(C(=O)Nc2cc(OC)c3ccn(C)c3c2)cc2c1C[C@]1(C)CC[C@@H](O)C(C)(C)[C@H]1O2', 0.24),
  ('O=C(NCCNCCCNC(=O)c1cc(-c2ccccc2)nc2ccccc12)c1cccc(OCc2ccccc2)c1OCc1ccccc1', 0.49),
  ('COc1cc(C2C(Cl)C(=O)N2NC(=O)c2ccc(N)cc2)cc(Br)c1O (stereo unspecified)', 1.50);

Let us examine a further case.
Value of log10(TGI) reported for the compound CN1C/C=C/CCOc2cccc(c2)-c2ccnc(n2)Nc2cccc(c2)C1 is -0.65

====

# Tested on: NCI/ADR-RES ovarian
# Protocol Details: NCI tumour cell line growth inhibition, 48 h
Assay Readout: TGI

Some entries whose results are on file:
INSERT INTO measurements (compound, assay_readout, result) VALUES
  ('CN(Cc1cc(Cl)cc(Cl)c1O)Cc1c(O)ccc2ccccc12', 'TGI', '42.5 µM'),
  ('CN1CCN(Cc2ccc(NC(=O)c3cccc(C#Cc4cnc(N)c5ncccc45)c3F)cc2C(F)(F)F)CC1', 'TGI', '5.18 µM'),
  ('CC(OC(=O)C(CC(=O)OC(C)(C)C)NC(=O)OC(C)(C)C)C(=O)OCc1ccccc1 (stereo not drawn)', 'TGI', '> 100 µM'),
  ('Cc1ccc(Cl)c(Nc2ccccc2C(=O)O)c1Cl', 'TGI', '80.9 µM'),
  ('CC1=CC(=O)CC(C)(C)C1/C=C/C(C)=C/C=C/C(C)=C/C=C/C=C(C)/C=C/C=C(C)/C=C/C1=C(C)CC(O)CC1(C)C (stereo not drawn)', 'TGI', '> 100 µM'),
  ('CN1CN(c2ccccc2)C2(CCN(CCC3COc4ccccc4O3)CC2)C1=O (stereo not drawn)', 'TGI', '49.6 µM');

compound CSc1ccc(/C=C2\N=C(c3ccccc3)N(c3nc4cc(C)c(C)cc4s3)C2=O)cc1 , TGI observed: > 100 µM

// recorded TGI for O=C1C=CC(=O)c2c1ccc1c3ccccc3n(Cc3cccc([N+](=O)[O-])c3)c21 : > 90.3 µM

Reported TGI ( O=C(CSc1nc2ccc(I)cc2c(=O)n1Cc1ccccc1)NNC(=O)c1ccccc1 ) = 49 µM

Summary for this compound, COc1ccc2nc3ccc(OC)cc3c(SCc3ccccc3)c2c1 : TGI is > 100 µM

// NCC1OC(OC2C(CO)OC(OC3C(O)C(N)CC(N)C3OC3OC(CO)C(O)CC3N)C2O)C(N)C(O)C1OC1OC(CO)C(O)C(O)C1O (stereo not drawn) : TGI value = > 50 µg/mL

Just so you know, measured TGI for C[N+](C)(C)CC(=O)N/N=C/c1ccncc1 came out at > 100 µM

Measured TGI of CC(=O)N1N=C2/C(=C/c3ccc(Cl)cc3)CC(C)CC2C1c1ccc(Cl)cc1 (stereo not drawn) : > 100 µM

The compound listed as COc1ccc(/C=C/C(=O)c2ccc(OC)c(OC)c2)cc1O has a reported TGI of 49.1 µM

Recorded TGI (compound COc1cc(/C=C/C(=O)N2CCN(C(=O)c3cc(OC)c(OC)c(OC)c3)CC2)ccc1OCCCOc1cc2c(cc1OC)C(=O)N1CCC[C@H]1C=N2 ): > 95 µM

In plain terms, COc1cc2c(cc1OC)C1Cc3cc(OC)c(OC)cc3C(C2)N1C has a documented TGI of > 75 µM

Source of measurements: PubChem BioAssay (NCI)
